Reported MIC values are given for each entry in this list.
test system: Acinetobacter baumannii; experiment: Antibacterial activity against intI1-positive tigecycline-resistant Acinetobacter baumannii AB173 with PFGE subgroup B1 containing carbapenemase OXA-23 and OXA-51 by Etest; type: functional
measure: MIC

- CN(C)c1cc(NC(=O)CNC(C)(C)C)c(O)c2c1C[C@H]1C[C@H]3[C@H](N(C)C)C(O)=C(C(N)=O)C(=O)[C@@]3(O)C(O)=C1C2=O [TIGECYCLINE]: 8 µg/mL
- C[C@H]1COc2c(N3CCN(C)CC3)c(F)cc3c(=O)c(C(=O)O)cn1c23.C[C@H]1COc2c(N3CCN(C)CC3)c(F)cc3c(=O)c(C(=O)O)cn1c23.O [LEVOFLOXACIN]: > 32 µg/mL
- CCN1CCN(C(=O)N[C@@H](C(=O)N[C@@H]2C(=O)N3[C@@H]2SC(C)(C)[C@@H]3C(=O)O)c2ccccc2)C(=O)C1=O [PIPERACILLIN]: > 128 µg/mL
- C[C@@H](O)[C@H]1C(=O)N2C(C(=O)O)=C(SCCNC=N)C[C@H]12 [IMIPENEM ANHYDROUS]: 32 µg/mL
- C[C@]1(Cn2ccnn2)[C@H](C(=O)O)N2C(=O)C[C@H]2S1(=O)=O [TAZOBACTAM]: 4 µg/mL

###

Readings of MIC for the listed compounds
system: Acinetobacter baumannii; assay: Antibacterial activity against intI1-positive tigecycline-resistant Acinetobacter baumannii AB168 with PFGE subgroup A1 containing carbapenemase OXA-23 and OXA-51 by Etest; type: functional
measure: MIC (µg/mL)

- CN(C)c1cc(NC(=O)CNC(C)(C)C)c(O)c2c1C[C@H]1C[C@H]3[C@H](N(C)C)C(O)=C(C(N)=O)C(=O)[C@@]3(O)C(O)=C1C2=O: 8
- C[C@]1(Cn2ccnn2)[C@H](C(=O)O)N2C(=O)C[C@H]2S1(=O)=O: 4

###

tested on: Acinetobacter baumannii; test: Antibacterial activity against intI1-positive tigecycline-intermediate Acinetobacter baumannii AB099 with PFGE subgroup H containing carbapenemase OXA-23 and OXA-51 by Etest; format: functional
// values below are reported MIC
measure: MIC (µg/mL)

- C[C@]1(Cn2ccnn2)[C@H](C(=O)O)N2C(=O)C[C@H]2S1(=O)=O [TAZOBACTAM]: 4
- CN(C)c1cc(NC(=O)CNC(C)(C)C)c(O)c2c1C[C@H]1C[C@H]3[C@H](N(C)C)C(O)=C(C(N)=O)C(=O)[C@@]3(O)C(O)=C1C2=O [TIGECYCLINE]: 6

###

test system: Acinetobacter baumannii; test: Antibacterial activity against intI1-positive tigecycline-susceptible Acinetobacter baumannii AB018 with PFGE subgroup G containing carbapenemase OXA-58 and OXA-51 by Etest; type: functional
# maps each entry to its MIC
measure: MIC (µg/mL)

- CN(C)c1cc(NC(=O)CNC(C)(C)C)c(O)c2c1C[C@H]1C[C@H]3[C@H](N(C)C)C(O)=C(C(N)=O)C(=O)[C@@]3(O)C(O)=C1C2=O: 2
- C[C@H]1COc2c(N3CCN(C)CC3)c(F)cc3c(=O)c(C(=O)O)cn1c23.C[C@H]1COc2c(N3CCN(C)CC3)c(F)cc3c(=O)c(C(=O)O)cn1c23.O: 6
- C[C@@H](O)[C@H]1C(=O)N2C(C(=O)O)=C(SCCNC=N)C[C@H]12 [IMIPENEM ANHYDROUS]: 8
- C[C@]1(Cn2ccnn2)[C@H](C(=O)O)N2C(=O)C[C@H]2S1(=O)=O: 4

###

tested on: Acinetobacter baumannii; test: Antibacterial activity against intI1-positive tigecycline-resistant Acinetobacter baumannii AB106 with PFGE subgroup B1 containing carbapenemase OXA-23 and OXA-51 by Etest; type: functional
measure: MIC (µg/mL)

• C[C@]1(Cn2ccnn2)[C@H](C(=O)O)N2C(=O)C[C@H]2S1(=O)=O = 4
• CN(C)c1cc(NC(=O)CNC(C)(C)C)c(O)c2c1C[C@H]1C[C@H]3[C@H](N(C)C)C(O)=C(C(N)=O)C(=O)[C@@]3(O)C(O)=C1C2=O = 8
• C[C@H]1COc2c(N3CCN(C)CC3)c(F)cc3c(=O)c(C(=O)O)cn1c23.C[C@H]1COc2c(N3CCN(C)CC3)c(F)cc3c(=O)c(C(=O)O)cn1c23.O = 32

###

test system: Acinetobacter baumannii; experiment: Antibacterial activity against intI1-positive tigecycline-resistant Acinetobacter baumannii AB168 with PFGE subgroup A1 containing carbapenemase OXA-23 and OXA-51 by Etest; type: functional
The reader will find reported MIC values listed item by item below.
measure: MIC

- C[C@@H](O)[C@H]1C(=O)N2C(C(=O)O)=C(SCCNC=N)C[C@H]12 [IMIPENEM ANHYDROUS]: > 32 µg/mL
- C[C@H]1COc2c(N3CCN(C)CC3)c(F)cc3c(=O)c(C(=O)O)cn1c23.C[C@H]1COc2c(N3CCN(C)CC3)c(F)cc3c(=O)c(C(=O)O)cn1c23.O: > 32 µg/mL
- CCN1CCN(C(=O)N[C@@H](C(=O)N[C@@H]2C(=O)N3[C@@H]2SC(C)(C)[C@@H]3C(=O)O)c2ccccc2)C(=O)C1=O: > 128 µg/mL

###

# MIC listing for each entry below
tested on: Acinetobacter baumannii; test: Antibacterial activity against intI1-positive tigecycline-intermediate Acinetobacter baumannii AB099 with PFGE subgroup H containing carbapenemase OXA-23 and OXA-51 by Etest; type: functional
measure: MIC

* CCN1CCN(C(=O)N[C@@H](C(=O)N[C@@H]2C(=O)N3[C@@H]2SC(C)(C)[C@@H]3C(=O)O)c2ccccc2)C(=O)C1=O [PIPERACILLIN] | > 128 mg/L
* C[C@@H](O)[C@H]1C(=O)N2C(C(=O)O)=C(SCCNC=N)C[C@H]12 [IMIPENEM ANHYDROUS] | > 32 mg/L
* C[C@H]1COc2c(N3CCN(C)CC3)c(F)cc3c(=O)c(C(=O)O)cn1c23.C[C@H]1COc2c(N3CCN(C)CC3)c(F)cc3c(=O)c(C(=O)O)cn1c23.O [LEVOFLOXACIN] | > 32 mg/L

Entry source: ChEMBL document CHEMBL1671742
